- protocol details: AUC (0 to last) in Sprague-Dawley rat at 0.3 mg/kg,iv measured at 0.05 to 24 hrs of post administration by LC-MS/MS analysis
- Type: ADME, organism-based
- measurement parameters: in vivo, time 0.05-24 hrs
measured quantity: AUC(0-t) (ng·h/mL)
Numbers only, in ng·h/mL.

-- ask // returns reported AUC(0-t) for input `CN1[C@@H]2C[C@@H](OC(=O)[C@@](F)(CO)c3ccccc3)C[C@H]1[C@@H]1O[C@@H]12`
-- reply 68.3

###

- protocol details: Half life in Sprague-Dawley rat at 0.3 mg/kg,iv measured at 0.05 to 24 hrs of post administration by LC-MS/MS analysis
- Type: ADME, organism-based
- measurement parameters: in vivo, time 0.05-24 hrs
measured quantity: half-life (min)
One number for each entry, in min.

-- ask // returns reported half-life for input `CN1[C@@H]2C[C@@H](OC(=O)[C@@](F)(CO)c3ccccc3)C[C@H]1[C@@H]1O[C@@H]12`
-- reply 13.9
